Assign NanoBRET Abs IC50 to each entry below.
System Tested: T1, B-cat-Halo (UniProt P35222 1-781, HaloTag NanoBRET 618 Ligand bound to the HaloTag in the assay)
T1 sequence (looked up): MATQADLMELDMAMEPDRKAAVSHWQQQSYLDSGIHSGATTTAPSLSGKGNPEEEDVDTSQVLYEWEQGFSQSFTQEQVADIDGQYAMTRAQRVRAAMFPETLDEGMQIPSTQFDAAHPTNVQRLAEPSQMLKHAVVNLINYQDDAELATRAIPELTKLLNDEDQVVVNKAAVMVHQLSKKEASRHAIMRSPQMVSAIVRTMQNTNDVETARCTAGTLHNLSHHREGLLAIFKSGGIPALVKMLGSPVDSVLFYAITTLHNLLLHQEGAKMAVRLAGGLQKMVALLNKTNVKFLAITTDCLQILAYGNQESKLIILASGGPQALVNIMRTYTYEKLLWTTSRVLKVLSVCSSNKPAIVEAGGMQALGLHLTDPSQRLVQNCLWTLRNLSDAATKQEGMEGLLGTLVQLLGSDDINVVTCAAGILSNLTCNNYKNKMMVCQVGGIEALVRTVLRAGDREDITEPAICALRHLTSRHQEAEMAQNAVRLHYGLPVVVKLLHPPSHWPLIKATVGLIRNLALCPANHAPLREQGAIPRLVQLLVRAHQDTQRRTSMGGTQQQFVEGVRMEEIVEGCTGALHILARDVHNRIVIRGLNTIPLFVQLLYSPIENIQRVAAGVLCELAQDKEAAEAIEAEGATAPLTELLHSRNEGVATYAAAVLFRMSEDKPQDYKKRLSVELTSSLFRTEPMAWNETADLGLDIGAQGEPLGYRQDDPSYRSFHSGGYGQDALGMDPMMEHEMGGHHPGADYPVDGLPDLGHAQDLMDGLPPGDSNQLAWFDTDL
Measurement Protocol: cell-based or functional assay
Starred links: 1 amine or outer side, 2 acyl side, 3 side chain; linkers in the order of their positions; H or OH if unused. Positions of bridges follow the written chain, without caps; N, C: chain ends. Non-standard residues stand in square brackets, D forms with d. Primed or numbered codes have the meaning given here. *: point of attachment. PyrS2″ = (S)-3-amino-1-((pent-4-en-1-yloxy)carbonyl)pyrrolidine-3-carboxylic acid (stapling residue), C=CCCCOC(=O)N1CC[C@@](N[*:1])(C(=O)[*:2])C1; TfeGA = (S)-2-amino-3-((carboxymethyl)(2,2,2-trifluoroethyl)amino)propanoic acid, O=C([C@H](CN(CC(=O)[*:3])CC(F)(F)F)N[*:1])[*:2]; B5(3) = 2,2-bis(4-pentenyl)glycine (stitching residue), C=CCCCC(CCCC=C)(N[*:1])C(=O)[*:2]; Me3AdamantC = 3,5,7-trimethyladamantane-1-carbonyl, CC12CC3(C)CC(C)(C1)CC(C(=O)*)(C2)C3; Me2NCBz = 4-((dimethylamino)methyl)benzoyl on Lys side chain, CN(C)Cc1ccc(C(=O)*)cc1; Phe(2-CF3) = N[C@@H](Cc1ccccc1C(F)(F)F)C(=O)O; Phe(2-Cl) = N[C@@H](Cc1ccccc1Cl)C(=O)O; Bta = N[C@@H](Cc1csc2ccccc12)C(=O)O; αAllylPro = C=CC[C@@]1(C(=O)O)CCCN1; tBuAla = CC(C)(C)C[C@H](N)C(=O)O; 3Thi = N[C@@H](Cc1ccsc1)C(=O)O; S8 = C=CCCCCCC[C@](C)(N)C(=O)O
Only the number, expressed in µM, is required.

Q: Tell me NanoBRET Abs IC50 reported for Ac-[αAllylPro]D[tBuAla][B5(3)]D[TfeGA]AAFN[PyrS2″][Phe(2-CF3)][Bta]Q-NH2 (staple 1-4, 4-11; not fully specified) [I-928]
Result: 6.1

Q: Tell me NanoBRET Abs IC50 reported for Ac-[αAllylPro]D[tBuAla][B5(3)]D[TfeGA]AAFN[S8][Phe(2-Cl)][Bta]Q-NH2 (staple 1-4, 4-11) [I-929]
Result: 10.3

Q: Tell me NanoBRET Abs IC50 reported for Ac-[αAllylPro]D[tBuAla][B5(3)]DDAAFN[PyrS2″][3Thi][Bta]QK(Me2NCBz)-NH2 (staple 1-4, 4-11) [I-910]
Result: 29.8

Q: Tell me NanoBRET Abs IC50 reported for Ac-[αAllylPro]D[tBuAla][B5(3)]DDAAFN[PyrS2″][3Thi][Bta]QK(Me3AdamantC)-NH2 (staple 1-4, 4-11) [I-920]
Result: 17.7
